TGI reference
test system: HL-60(TB) leukemia; assay: NCI tumour cell line growth inhibition, 48 h

Consider the worked cases shown below.
COc1ccc(N=NC(=O)NC(CC(C)C)C(=O)NC(CC(C)C)C(=O)O)cc1 (centres undefined); > 100 µM
CCOC(=O)C(=CNC(=S)c1ccncc1)C(=O)OCC; > 100 µM
Clc1ccc(OCc2nnc3n2N=C(c2ccccc2)CS3)cc1; 30.4 µM

Next compound, please.
**Q:** Could you share which TGI value was measured for CN1C(=O)C(O)CC1c1ccc(C(F)(F)F)cc1 (centres undefined) ?
**A:** > 100 µM

* * *

tested on: SK-MEL-28 melanoma; assay: NCI tumour cell line growth inhibition, 48 h
TGI reference

Consider the worked cases shown below.
CN1C(=O)C(O)CC1c1ccc(C(F)(F)F)cc1 (stereo not drawn); > 100 µM
CCn1cc(C2NC(=O)c3ccccc3N2)c2cccc(C)c21 (stereo not drawn); > 100 µM

Next compound, please.
**Q:** Could you share which TGI value was measured for COc1nc(=O)cc(N)n1C1OC(CO)C(O)C1O (stereo not drawn) ?
**A:** > 100 µM
